Molecular target: T1, human Her2 (ECD)-Fc protein (human, UniProt P04626 23-652)
T1 construct: extracellular domain; Made in HEK293F cells; also called hHer2 (ECD)-Fc antigen; Her2 (ECD)-Fc antigen; not shown: TEV restriction site at the C-terminal of hHer2 (ECD); IgG1 Fc of the pFUSE-IgG1 vector
Assay: PE-ELISA, A405 of antigen well over control well
Procedure: (1) 10 μg Her2 (ECD)-Fc antigen (10 μg Fc in NaHCO₃ as control) dissolved in 100 mM NaHCO₃ (pH 8.2) was coupled to a NUNC plate then incubated at 4° C. overnight. (5) The unbound antibody was washed off with PBST. (6) When the OD value of the sample was over 3 times of the OD value of the control sample (Ratio+/−>3), the tested sample was determined to be a positive clone. […] Then all the positive clones were transferred to LA medium for plasmid extraction and sequencing.
Hi, to clarify the labels: Fulfilled covers Ratio(+/-) from 20 upward, Not fulfilled covers anything below 20.

Nanobody No. 28 (VHH, also called 28; not shown: tags (HA, His) implied by anti-HA detection and nickel column) VHH: QVQLQESGGGLVQPGGSLRLSCAASGFTFGDSGMGWYRQAPGNECELVSSVSSDGSTYYADSVKGRFTISQDNAKNTVYLRMNSLKPEDTAVYYCAADDHKYELGTCEALDYWGRGTQVTVSS | Fulfilled
Nanobody No. 23 (VHH, camel VHH from pMECs phage display vector; also called Antibody no; 23; not shown: tags (HA, His) implied by anti-HA detection and nickel column) VHH: QVQLQESGGGSVQAGGSLKLSCSASGFTFDDTDMGWYRQAPGNECELVSTISSDGTTYYTDSVKGRFTISQDNAKNTVYLQMNSLKPEDTAVYYCAAINSGYELGTCESLDYWGRGTQVTVSS | Not fulfilled
Nanobody No. 39 (VHH, also called 39; not shown: tags (HA, His) implied by anti-HA detection and nickel column) VHH: QVQLQESGGGSVQAGGSLRLSCAASGYTYTGYCMGWFRQAPGKEREGVATIDSDGDTSYADSVKGRFTISKDNAKNTLYLQMNSLKPEDTAMYYCAADFRRWHLCSSSFREDGMDYWGKGTQVTVSS | Not fulfilled

Query string: Identify whether the reported Ratio(+/-) of the following binder is 20 or greater: Nanobody No. 12 (VHH, also called 12; not shown: tags (HA, His) implied by anti-HA detection and nickel column) VHH: QVQLQESGGGSVQAGETLRLSCTASGFTFDDSDMGWYRQAPGNECELVSTISSDGSTYYADSVKGRFTISQDNAKNTVYLQMNSLKPEDTAVYYCAADGHKYELGTCAALDYWGRGTQVTVSS
Result string: Fulfilled

Query string: Identify whether the reported Ratio(+/-) of the following binder is 20 or greater: Nanobody No. 32 (VHH, also called 32; not shown: tags (HA, His) implied by anti-HA detection and nickel column) VHH: QVQLQESGGGSVQAGGSLRLSCTASGFTFDDVDMGWYRQASGNECELVSTISSDGSTYYADSVKGRFTISQDNAKNTVYLQMNSLKPEDTAMYYCAAARYSDYEGMCGYWSQGTQVTVSS
Result string: Fulfilled

Query string: Identify whether the reported Ratio(+/-) of the following binder is 20 or greater: Nanobody No. 18 (VHH, also called 18; not shown: tags (HA, His) implied by anti-HA detection and nickel column) VHH: QVQLQESGGGSVQAGQTLRLSCTASGFTFDDSDMAWYRQAPGNECELVSKMRSDGSTYYADSVKGRFTISQDNAKNTVYLQMNSLKPEDTAVYYCAEDLPYGLGTCTSLDYWGRGTQVTVSS
Result string: Not fulfilled

Query string: Identify whether the reported Ratio(+/-) of the following binder is 20 or greater: Nanobody No. 40 (VHH, also called 40; not shown: tags (HA, His) implied by anti-HA detection and nickel column) VHH: QVQLQESGGGSVQAGETLRLSCAASGYTYTGYCMGWFRQATGKEREGVATIDSDGDTTYADSVKGRFTISKDNGKNTLYLQMNSLKPEDTAMYYCAADFRRWHLCSSSFQEYDMDYWGKGTQVTVSS
Result string: Not fulfilled

Query string: Identify whether the reported Ratio(+/-) of the following binder is 20 or greater: Nanobody No. 25 (VHH, also called 25; not shown: tags (HA, His) implied by anti-HA detection and nickel column) VHH: QVQLQESGGGSVQAGETLRLSCTASGFTFDDSDSDMGWYRQAPGNECELVSSISSDGSTYYADSVKGRFTISQDNAKNTVYLQMNSPKPEDTAVYYCAAINSGYELGTCESLDYWGRGTQVTVSS
Result string: Fulfilled

Source of measurements: patent US20230263916A1
